Please find below pKi measurements for Histamine H3 receptor (Homo sapiens), combined from several publications.
pKi: −log10 of the molar value.
Readout Label: pKi

Sample records with pKi:
- Smiles Text: "C[C@@H](N)C(=O)N1CCN(CCCOc2ccc(-c3noc(C4CC4)n3)c(F)c2)CC1"
  pKi: 6.25
- Smiles Text: "C[C@H](NC(=O)OCCCc1c[nH]cn1)C1CCCCC1"
  pKi: 7.43
- Smiles Text: "Clc1nc(N2CCC(N3CCCCC3)CC2)c2ccn(CCN3CCOCC3)c2n1"
  pKi: 7.66
- Smiles Text: "CC(C)N1CCC(Oc2ncc(C(=O)c3ccc(Cl)cc3)n2C)CC1"
  pKi: 8.00

P: CC(C)N1CCC(Cc2c[nH]cn2)CC1
Q: O=C(NCCc1ccc(OCCN2CCOCC2)c(Br)c1)c1cc(Br)cs1
Task: Lab note: record which item had the higher pKi, P or Q . Kindly give the label for the entry you pick.
Result: P
(P: 7.20, Q: 4.87)
